Ref: paper PMC11201810

molecular target: the molecule itself; assay: AUC
PARAMETER_MEASURED: % dimer (%)
Express the result in % but write the number alone.

(Q) Could you share which % dimer value was measured for human βB2-crystallin W82F (natural protein, UniProt P43320 1-205, looked up) MASDHQTQAGKPQSLNPKIIIFEQENFQGHSHELNGPCPNLKETGVEKAGSVLVQAGPWVGYEQANCKGEQFVFEKGEYPRFDSWTSSRRTDSLSSLRPIKVDSQEHKIILYENPNFTGKKMEIIDDDVPSFHAHGYQEKVSSVRVQSGTWVGYQYPGYRGLQYLLEKGDYKDSSDFGAPHPQVQSVRRIRDMQWHQRGAFHPSN ?
(A) 75.5

(Q) Now the same for human βB2-crystallin W59F (natural protein, UniProt P43320 1-205, looked up) MASDHQTQAGKPQSLNPKIIIFEQENFQGHSHELNGPCPNLKETGVEKAGSVLVQAGPFVGYEQANCKGEQFVFEKGEYPRWDSWTSSRRTDSLSSLRPIKVDSQEHKIILYENPNFTGKKMEIIDDDVPSFHAHGYQEKVSSVRVQSGTWVGYQYPGYRGLQYLLEKGDYKDSSDFGAPHPQVQSVRRIRDMQWHQRGAFHPSN
(A) 48.7

(Q) Next protein: human βB2-crystallin W85F (natural protein, UniProt P43320 1-205, looked up) MASDHQTQAGKPQSLNPKIIIFEQENFQGHSHELNGPCPNLKETGVEKAGSVLVQAGPWVGYEQANCKGEQFVFEKGEYPRWDSFTSSRRTDSLSSLRPIKVDSQEHKIILYENPNFTGKKMEIIDDDVPSFHAHGYQEKVSSVRVQSGTWVGYQYPGYRGLQYLLEKGDYKDSSDFGAPHPQVQSVRRIRDMQWHQRGAFHPSN
(A) 79.7

(Q) And human βB2-crystallin W151F (natural protein, UniProt P43320 1-205, looked up) MASDHQTQAGKPQSLNPKIIIFEQENFQGHSHELNGPCPNLKETGVEKAGSVLVQAGPWVGYEQANCKGEQFVFEKGEYPRWDSWTSSRRTDSLSSLRPIKVDSQEHKIILYENPNFTGKKMEIIDDDVPSFHAHGYQEKVSSVRVQSGTFVGYQYPGYRGLQYLLEKGDYKDSSDFGAPHPQVQSVRRIRDMQWHQRGAFHPSN ?
(A) 92.2
